The reader will find reported Plant response rating, Goosegrass values listed item by item below.
- Tested on: goosegrass (Eleusine indica)
- PROTOCOL TEXT: Test A1 preemergence, goosegrass
- Format: in vivo
- CONDITION: 31 g ai/ha, 0 to 100 scale (0 no effect, 100 complete control)

Examples with answers:
- Cc1cc(C)c(N(COC(=O)C(C)(C)C)S(=O)(=O)C(F)(F)F)cc1C1=NOC2CCCCCC12 (single isomer, unassigned): 0
- Cc1cc(C)c(N(COC(=O)C(C)(C)C)S(=O)(=O)C(F)(F)F)cc1C(=O)N1CCC(C)CC1: 20
- Cc1c(NS(=O)(=O)C(F)(F)F)cc(C(=O)N2CCC(C)CC2)c(C)c1C: 10
- COC1CCC2(CC1)CCN(c1cc(NS(=O)(=O)C(F)(F)F)c(C)cc1C)C2=O (stereo not drawn): 100
- COC1CCCN(C(=O)c2cc(NS(=O)(=O)C(F)(F)F)c(Cl)c(F)c2C)C1 (stereo not drawn): 70

Consider the record given below.
Asked: Which Plant response rating, Goosegrass reading was recorded for the molecule CCOC(=O)N(c1cc(C(=O)N2C[C@@H](C)O[C@@H](C)C2)c(C)c(C)c1C)S(=O)(=O)C(F)(F)F ?
Given back: 50

* * *

- Test system: kochia (Bassia scoparia)
- PROTOCOL TEXT: Test A postemergence, kochia
- Assay type: in vivo
- CONDITION: Postemergence, 500 g ai/ha; visual injury, 0 to 100 scale (0 no effect, 100 complete control), approx. 10 days
- Source text: Seeds of plant species selected from barnyardgrass (Echinochloa crus-galli), kochia (Bassia scoparia), ragweed (common ragweed, Ambrosia artemisiifolia), Ryegrass, Italian (Italian ryegrass, Lolium multiflorum), Foxtail, Giant (giant foxtail, Setaria faberi), and pigweed (Amaranthus retroflexus) were planted into a blend of loam soil and sand and treated preemergence with a directed soil spray using test chemicals formulated in a non-phytotoxic solvent mixture which included a surfactant. […]
The reader will find reported Plant response rating, Kochia values listed item by item below.
Just the number, please.

Examples with answers:
* Cc1cc(Cl)c(NS(=O)(=O)C(F)(F)F)cc1C(=O)N1CC(C)OC(C)C1 (centres unmarked) [Compound 20] | 30
* Cc1cc(Br)c(NS(=O)(=O)C(F)(F)F)cc1C(=O)N1CCOCC1 [Compound 14] | 70
* Cc1cc(C)c(N(S(=O)(=O)C(F)(F)F)S(=O)(=O)C(F)(F)F)cc1-c1cn(C)c(=O)n(C)c1=O [Compound 42] | 30

Asked: Which Plant response rating, Kochia reading was recorded for the compound O=C(c1ccc(Cl)c(NS(=O)(=O)C(F)(F)F)c1)N1CCOCC1 [Compound 15] ?
Given back: 70

Asked: Which Plant response rating, Kochia reading was recorded for the compound Cc1cc(C)c(N(S(C)(=O)=O)S(=O)(=O)C(F)(F)F)cc1-c1cc(C(C)C)nn(C)c1=O [Compound 39] ?
Given back: 0

* * *

- Tested on: kochia (Bassia scoparia)
- PROTOCOL TEXT: Test A postemergence, kochia
- Assay type: in vivo
- CONDITION: Postemergence, 500 g ai/ha; visual injury vs untreated controls after approx. 10 days; 0 to 100 scale (0 no effect, 100 complete control)
Values of Kochia plant response rating greater than or equal to 50 map to Condition met; values below map to Condition not met.

Use these answered entries as a reference point.
• Cc1cc(C)c(C2=NOC3(CCC(C)(C)CC3)C2)cc1NS(=O)(=O)C(F)(F)F = Condition met
• CC(=O)N(c1cc(C2=NOC3(CCCC3)C2)c(C)cc1C)S(=O)(=O)C(F)(F)F = Condition met
• Cc1cc(F)c(-c2ccnn(C)c2=O)cc1NS(=O)(=O)C(F)(F)F = Condition met
• Cc1cc(C)c(C2=NOC3(C2)CC(C)OC(C)C3)cc1NS(=O)(=O)C(F)(F)F (single isomer, unassigned) [Compound 171] = Condition met
• COc1cnn(C)c(=O)c1-c1cc(NS(=O)(=O)C(F)(F)F)c(C)cc1C = Condition not met

Asked: Entry Cc1cc(F)c(C(=O)N2CC(C)OC(C)C2)cc1NS(=O)(=O)C(F)(F)F (centres unmarked) : is its Kochia plant response rating no less than 50?
Given back: Condition not met

Asked: Entry CCn1cc(-c2cc(NS(=O)(=O)C(F)(F)F)c(C)cc2C)c(=O)n(CC)c1=O : is its Kochia plant response rating no less than 50?
Given back: Condition not met

Asked: Entry Cc1cc(Cl)c(N(S(=O)(=O)C(F)(F)F)S(=O)(=O)C(F)(F)F)cc1C(=O)N1CCC(Cl)CC1 : is its Kochia plant response rating no less than 50?
Given back: Condition not met

Asked: Entry Cc1cc(C)c(N(S(C)(=O)=O)S(=O)(=O)C(F)(F)F)cc1-c1cc(Cl)nn(C)c1=O : is its Kochia plant response rating no less than 50?
Given back: Condition not met

Asked: Entry CCN(CC)C(=O)c1cc(NS(=O)(=O)C(F)(F)F)c(C)cc1C : is its Kochia plant response rating no less than 50?
Given back: Condition not met

Asked: Entry Cc1cc(C)c(C2=NOC3CCCC23)cc1NS(=O)(=O)C(F)(F)F (centres unmarked) : is its Kochia plant response rating no less than 50?
Given back: Condition met
